- Tested on: HCT-15 colon
- PROTOCOL TEXT: NCI tumour cell line growth inhibition, 48 h
MEASUREMENT KIND: TGI (µM)
Answers are plain numbers, in µM.

COMPOUND	QUANTITATIVE RESULT
COc1cc(/C=C/c2cc(/C=C/c3ccc(O)c(OC)c3)n(-c3c(Cl)cccc3Cl)c(=O)n2)ccc1O	9.66
O=C1C=CC(=O)c2cc3cc(CO)ccc3cc21	28.4
CN(CCCCCl)P(=O)(OCC1=CC(=O)c2ccccc2C1=O)OC[C@H]1O[C@@H](n2cc(F)c(=O)[nH]c2=O)C[C@@H]1O (some centres not stated)	20.3
CCCCCCCCOCC(CO)OCCCCCCCC (configuration not stated)	29.7
NCCCCCCCCCCn1c2c(c3ccccc3c1=O)C(=O)c1ccccc1-2	16.9
CNCC(=O)Nc1ccc2c(c1)C(=O)c1ccc(NC(=O)CNC)cc1C2=O	23.2
CC(C)(C)c1ccc(C(C)(C)C)c(N2C(=O)[C@@H]3[C@@H]4C=C[C@@H](C4)[C@]3(C)C2=O)c1	42.9
Cc1ccc(O)c(C(c2ccc(C(c3cc(C)ccc3O)c3cc(C)ccc3O)cc2)c2cc(C)ccc2O)c1	3.2

The record that follows has no TGI shown yet.
Tested on HCT-15 colon: CCOC(=O)N1C/C(=C/c2ccc(Cl)cc2)C(=O)/C(=C/c2ccc(Cl)cc2)C1 . Observed TGI: 7.24

* * *

- Tested on: HOP-62 NSCLC
- PROTOCOL TEXT: NCI tumour cell line growth inhibition, 48 h
Hi there, I'd appreciate the recorded TGI for every entry that follows.
Answers are plain numbers, in µM.

Examples with their reported TGI follow.
MOLECULE	UNIT OF MEASURE	TGI
O=C1C(Cl)C(c2cc3cc(Br)ccc3nc2Cl)N1c1ccc(F)c(Cl)c1 (stereo not given)	µM	6.39
CCC(CC)c1nc(Nc2cccc(OC)c2)c2ccccc2n1	µM	14.8
CCOC(=O)/C=C(/C(=O)OCC)n1cc(C)c(=O)n(/C(=C/C(=O)OCC)C(=O)OCC)c1=O	µM	43.3

Then this molecule:
For this molecule ( C=C1C(=O)O[C@H]2[C@H]1CC/C(COC(=O)/C=C/C(=O)NCc1ccc(Cn3c(=O)sn(-c4ccccc4)c3=O)cc1)=C\CC[C@@]1(C)O[C@@H]21 ), measured TGI is 27.1

* * *

- Tested on: COLO 205 colon
- PROTOCOL TEXT: NCI tumour cell line growth inhibition, 48 h
MEASUREMENT KIND: TGI

Record excerpt, results attached:
COMPOUND	TGI
C#CCn1cnc2cnc(Nc3cccc(NC(=O)CCl)c3)nc21	45 µM
NC(=S)N/N=C1\CCCCc2ccccc21	> 10 µM
Nc1nc(N)c(N=Nc2ccccc2)c(-c2ccccc2)n1	25.8 µM

I would be grateful if you could provide TGI for each of the following entries.
1. Cc1ccc(C(=O)O)cc1NC(=O)c1cc(/C=C/c2ccccc2)[nH]c(=S)n1
2. O=C(CC1(O)C(=O)Nc2c(Cl)ccc(Cl)c21)c1ccco1 (stereo unspecified)

1. > 100 µM
2. 33 µM

* * *

- Test system: DU-145 prostate
- PROTOCOL TEXT: NCI tumour cell line growth inhibition, 48 h
Record form. Attribute: TGI. Fill in for each entry.

Here is how some molecules turned out for TGI.
MOLECULE	RESULT
CC(=O)OC1C2CCC1C1C2N=NN1c1ccc([N+](=O)[O-])cc1 (stereo not drawn)	> 100 µM
COc1cc2ccnc(C=O)c2cc1OC	> 100 µM

Record summary for c1ccc([P+](c2ccccc2)(c2ccccc2)c2ccc3c4ccc([P+](c5ccccc5)(c5ccccc5)c5ccccc5)c5cccc(c6cccc2c63)c54)cc1 : reported TGI = 13.4 µM

* * *

- Tested on: UACC-62 melanoma
- PROTOCOL TEXT: NCI tumour cell line growth inhibition, 48 h; in the data active = GI50 below about 0.43 µM; inactive = the rest
Valid outcomes are listed here; reply with one: active, inactive

Solved entries:
MOLECULE	CLASS ASSIGNMENT
CC(=O)NS(=O)(=O)c1ccc(-n2nc(-c3ccc(Cl)cc3)cc2-c2cc(O)ccc2O)cc1	inactive
Cn1ccc(=O)c2c(O)c3ccccc3c(O)c21	inactive
COC1/C=C\C=C(/C)C(=O)NC2=CC(=O)C(N)=C(CC(C)CC(OC)C(O)C(C)C=C(C)C1OC(N)=O)C2=O (stereo not drawn)	active

Test call for this molecule, please: CC1(C)C(N(O)C(=O)Nc2ccc(Cl)cc2)N(c2ccc(Cl)cc2)C(=O)N1CC(=O)N/N=C/C=C/c1ccc([N+](=O)[O-])o1 (stereo not drawn)
inactive

What is the recorded call for this molecule in the test? C=C1C(=O)O[C@H]2[C@H]1CC/C(COC(=O)/C=C/C(=O)NCc1ccc(Cn3c(=O)sn(-c4ccccc4)c3=O)cc1)=C\CC[C@@]1(C)O[C@@H]21
inactive

Any idea what this test logged for CCCCCCCCCCS(=O)CC(CO)NC(=O)/C=C/c1c(C)[nH]c(=O)[nH]c1=O (stereo not drawn) ?
inactive

# outcome recorded in this test, key = Cn1ncc(NC(=O)c2nc(-c3c(F)cccc3F)sc2N)c1N1CC[C@@H](N)[C@H](F)CC1
inactive

Query: recorded result category for C#CCn1cnc2cnc(Nc3cccc(NC(=O)CCl)c3)nc21 in this test
inactive

* * *

- System: MDA-MB-231 breast
- PROTOCOL TEXT: NCI tumour cell line growth inhibition, 48 h; in the data active means GI50 below about 0.43 µM; inactive means the rest
Pick one and only one: label 1 for active, label 0 for inactive

Worked examples, 3 compounds total:
COMPOUND	CLASS ASSIGNMENT
CCC(CC)c1nc(Nc2cccc(OC)c2)c2ccccc2n1	label 0
c1ccc2cc(C[n+]3ccn(CCCCCCCCCCCCn4cc[n+](Cc5ccc6ccccc6c5)c4)c3)ccc2c1	label 0
CNC(=O)NCC1OC(n2cnc3c(NC(=O)Nc4ccccc4)ncnc32)C(O[Si](C)(C)C(C)(C)C)C1CC(=O)N(C)OC (centres undefined)	label 0

Assay result, entry O=C(c1ccc(Cl)cc1)c1no[n+]([O-])c1C(=O)c1ccc(Cl)cc1 — outcome?
label 0

Which result was noted for this compound in the test: COc1cc2c(cc1I)-c1c(cc(OC)c(OC)c1OC)CC[C@@H]2NC(C)=O
label 0

Tell me the assay call for COc1ccc(CC(C)=C(c2ccc(OCCN3CCCCCC3)cc2)c2ccc(OCCN3CCCCCC3)cc2)cc1 please.
label 1

In this assay, the call recorded for CS(=O)(=O)O[C@H]1C(=O)N(c2cc3c4ccccc4ccc3c3ccccc23)[C@@H]1c1ccccc1 was what?
label 0

In this assay, the call recorded for NCCCOc1cc2ccccc2cc1C(=O)NCCOc1nc2ccccc2cc1C(=O)Nc1ccc(Cl)cc1O was what?
label 0

Test call for this compound, please: Clc1ccc2c(c1)C(Br)c1cc(Cl)cc(Cl)c1-2 (centres undefined)
label 0

// return assay outcome for Nc1nc(N)c(N=Nc2ccccc2)c(-c2ccccc2)n1
label 0

* * *

- System: TK-10 renal
- PROTOCOL TEXT: NCI tumour cell line growth inhibition, 48 h
MEASUREMENT KIND: TGI

A selection of reference data follows.
COMPOUND	TGI
COc1cccc(/C=N/[N-]C(=O)c2ccncc2)c1[O-].[Ni+2].[OH3+]	> 100 µM
C/C(=C\COc1cc(O)c2c(c1)C(=O)c1cc(C)cc(O)c1C2=O)CCC1OC1(C)C (stereo unspecified)	> 100 µM
O=C([O-])c1cc(I)cc(I)c1[OH2+].O=C([O-])c1cc(I)cc(I)c1[OH2+].[Mn+2]	> 100 µM
CC(N)Cc1ccc(F)cc1 (stereo unspecified)	> 100 µM

Batch lookup, TGI per entry.
1. CCC(=O)/C=C/c1ccccc1
2. CCOC(=O)C1CCCCN1C(=O)OCc1ccccc1 (stereo unspecified)

1: > 100 µM; 2: > 100 µM

* * *

What TGI was measured for each of the following?
- Tested on: MALME-3M melanoma
- PROTOCOL TEXT: NCI tumour cell line growth inhibition, 48 h

Would you please look over these solved cases?
COMPOUND	TGI
CC/C=C/C[C@H](O[Si](C)(C)C(C)(C)C)[C@H]1C[C@H]2O[C@H]([C@@H](O)C#C[Si](C)(C)C)C[C@H]2O1	24.8 µM
O=c1cc(-c2ccccc2)c2ccc(O)c(CN(CCCl)CCCl)c2o1	41.3 µM
O=C1Nc2ccccc2/C1=C\c1c(Cl)nc2sccn12	> 44.7 µM
C[n+]1c(-c2ccccc2)c2cc(N)ccc2c2ccccc21	6.63 µM
CCN(CC)Cc1cc(Nc2c3ccc(Cl)cc3nc3ccc(OC)cc23)ccc1O	4.21 µM
Cc1cc2c(O)c(c1)COCc1cc(C)cc(c1O)COCc1cc(C)cc(c1O)COC2	> 100 µM
O=C(/C=C/c1ccc(Cl)cc1)c1ccc(Nc2nc(Nc3ccc(F)cc3)nc(Nc3ccc(F)cc3)n2)cc1	> 100 µM
OC1c2ccccc2CCC1C(O)(C(F)(F)F)C(F)(F)F (centres undefined)	> 100 µM

# input for lookup
response.value for CNC(=O)NCC1OC(n2cnc3c(NC(=O)Nc4ccccc4)ncnc32)C(O[Si](C)(C)C(C)(C)C)C1CC(=O)N(C)OC (centres undefined) (field: TGI) = > 100 µM
